- experiment-notes: yeast display, Sf9 membrane polyspecificity reagent, FACS + sequencing; frameworks hold sequencing errors
metric-name: polyreactivity (PSR sort gate)

# example entries with known answers
# polymer-sequence, polyreactivity (PSR sort gate)
records = [
    ("QVQLVESGGGLVQAGGSLRLSFAASGRTFGRYAMGWYRPATGKERELVATISSRGGNTYYADSVKGRFTISRDNAQKTVYLEMNSLKAEDTAVYYCAAQTYKWYDWGQGTQVTVSS", "high polyreactivity"),
    ("QVQLVESGGGLVQAGGSLRLSCAASGSTFKRYAMGWYRQAPGKERELVASISQRGGTTYYADSVKGRFTISRDNAKNTVDLQMNSLKPEDTAVYYCAKGFGWTRTIYDYWGQGTQVTVSS", "high polyreactivity"),
    ("QVQLVESGGGLVQAGGSLRLSCAASGRIFYYYAMGWYRQAPGKEREFVADISARGGSTYYADSVKGRFTISRDNAKNTVYLQMNSLKPEDTAVYYCAATTGLYTRYGYWGQGTQVTVSS", "high polyreactivity"),
    ("QVQLVESGGGLVQAGGSLRLSCAASGLIFVNAMGWYRQAPGKEREFVAAITYSTGSTYYADSVKGRFTISRDIAKNTVYLQMNSLKPEDTAVYYCAKDRSGHGTERDYWGQGTQVTVSS", "low polyreactivity"),
    ("QVQLVESRGGLVQAGGSLRLSCDASGIIFVKYAMGWYRQAPGKERELVAAITSGGSTYYADSVKVRFTISRDNAKNTVYLQMNSLKPEDTAVYYCNADSWFLYYFTINGYWGQGTQVTVSS", "high polyreactivity"),
]

Ask | Tell me polyreactivity (PSR sort gate) reported for QVQLQESGGGLVQAGGTLRLSCAVSGTIFFPLDMGWYRQAPGREREYVAAIAEGTSTYYADSVKGRFTISRDNAKNTVFPQMYSLKPEDTAVYYCAAYRSTPQQFHYWGQGTQVTVSS
Reply | high polyreactivity

Ask | Tell me polyreactivity (PSR sort gate) reported for QVQLVESGGGLVQAGGSLRLSCAASGRISFRYAMGWYRQAPGKERELVAAINRGGITNYADSVKGRFTISRDNAKNTVYLQMNSLKPEDTAVYYCAARYASPRYKSKIAYWGQGTQVSVSS
Reply | high polyreactivity

Ask | Tell me polyreactivity (PSR sort gate) reported for QVQLVESGGGLVQAGGSLRLSCAASGRTFAIYAMGWYRQAPGKERELVATIRGGSTYYADSVKGRFTISRDNAKNTVYLQMNSLKPEDTAVYYCAAEFLYASVYYSYWGQGTQVTVSS
Reply | high polyreactivity

###

- experiment-notes: yeast display, Sf9 membrane polyspecificity reagent, FACS + sequencing; frameworks hold sequencing errors
metric-name: polyreactivity (PSR sort gate)

# polymer-sequence, metric-name, test-value
measured = [
    ("QVQLVESGGGLVQAGGSLRLSCAASGSIFTLYAMGWYRQAPGKERELVAAITWTGGSTYYADSVKGRFTISRDNAKNTVYLQMNSLKPEDTAVYYCATDGYWQSNGAFYYVARHGGYWGQGTQVTVSS", "polyreactivity (PSR sort gate)", "low polyreactivity"),
    ("QVQLVESGGGLVQAGGSLRLSCAASGRTFARYAMGWYRQAPGKERELVAAISSSGGSTYYADSVKGRFTISRDNAKNTVYLQMNSLKQEDTAVYYCVTYRNWWYDYWGQGTQVTVSS", "polyreactivity (PSR sort gate)", "high polyreactivity"),
    ("QVQLVESGGGLVQAGGSLRLSCAASGSIFASYVMGWSRQAPGKERELVAAISYSDGRTYYADSVKGRFTISRDNAKNTVYLQMNSLKPEDTAVYYCAADRHARLVIGYRRLRYEYWGQGTQVTVSS", "polyreactivity (PSR sort gate)", "low polyreactivity"),
    ("QVQLVVSGGGLVQAGGSLRLSCAPSGRTFKPYVMGWYRQAPGKERELVAAISSRGGSTYYADSVKGRFTISRDNEKTTVFLQMNSLKPEDTAVYYCNAAYWFSNKNGYWGQGTQVTVSS", "polyreactivity (PSR sort gate)", "high polyreactivity"),
    ("QDQHVESGGGLVQAGGSLRLSCAASGYILRCNTMGWSRKAPGKERELVAAISSRGGITNYADSVKGRFTFSRDNAKNTVYLQMNSRKPEDTAVYYCATYWQYRYDYWGQGTQVTVSS", "polyreactivity (PSR sort gate)", "low polyreactivity"),
    ("QVQLVESGGGLVQAGGSLRLSCAASGRIFRTNAQGWYRQAPGKERELVAAITRGGTTNYADSVKGRFTISRDNAKNTVYLQMNSLKPEDTAVYYCATRLSGWRYYLARYDYWGQGTQVTVSS", "polyreactivity (PSR sort gate)", "low polyreactivity"),
    ("QVQLVESGGGLVQAGGSLRLSCAASGRTFHWYTMGWYRLAPGKERELVAAISWSGTTTYYADSVKGRFTISRDNAKNTVYVQMNSLKPEDTAVYYCAFPTYNHNPVSAMTYYYWGQGTQVTVSS", "polyreactivity (PSR sort gate)", "low polyreactivity"),
    ("QVQLVESGGGLVQAGGSLRLSCAASGFIFSVYAMGWYRQAPGKEREFVAAIRWSGGSTYYADSVKGRFTISRDNAKNTVYLQMNSLKPEDTAVYYCAARARDLYGYWGQGTQVTVSS", "polyreactivity (PSR sort gate)", "high polyreactivity"),
]

Ask | Tell me polyreactivity (PSR sort gate) reported for QVQLVESGGGLVQPGGSLRLSCAASGSTFSGYTMGWYRQAPGKERELVASISSGVSTYYADSVKGRFTISRDNAKNTVYLQMNSLKPEDTAVYYCAADSVGDYGYQVYASWGYEDEYWGQGTQVTVSS
Reply | low polyreactivity

Ask | Tell me polyreactivity (PSR sort gate) reported for QVQLVESGGGLVQAGGSLRLSCAASGRTFTFYAMGWYRQAPGKERELVAAISTRGGRTYYADSVKGRFTISRDNAKNTVYLQMNSLKPEDTAVYYCAARARRRYYYWGQGTQVTVSS
Reply | high polyreactivity

Ask | Tell me polyreactivity (PSR sort gate) reported for QVQLVESGGGLVQAGGSLRLSCAASGFIFGSYALGWDRQAPGKEWELVAAINYDGGSTYYADSVKGRFTISRDHAKNTVYLQMNSLKPEDTAVYYCAADLYYTHMDYWGQGTQVTVSS
Reply | low polyreactivity

###

- experiment-notes: yeast display, Sf9 membrane polyspecificity reagent, FACS + sequencing; frameworks hold sequencing errors
metric-name: polyreactivity (PSR sort gate)

# example entries with known answers
# polymer-sequence, polyreactivity (PSR sort gate)
measured = [
    ("QVQLVESWGGLVQAGGSLRLSCAASGFTFRGYARGWYRQAPGKERELVAAISRSGGSTNFADSVKGRFTISRDNAKNTVYLQMNSLKPEDTAVYYCAAGWNPYDYWGQGTQVTVSS", "high polyreactivity"),
    ("QVQLVESGGGLVQAGGSLRLSCAASGRIFKYNAMGWYRQAPGKERELVAAISWTGVSTHYADSVKGRFTISRDNAKNTVYLQMNSLKPEDTAVYYCAARVGRGVYYHWRDYWGQGTQVTVSS", "low polyreactivity"),
    ("QVQLVESGGGLVHAGGSLRLSCAASGIIFPYNLMGWYRQAPGKERELVADITRGAASTYYADSVKGRFTISRVNAKNTVYFQMNRLKTEDTAVYFCNADGTWRTYNFWGQGTQVTVSS", "high polyreactivity"),
    ("QVQLVDSGGGLVQAGGSLRLSCAASGRTFTRNAMGWYRPATRQERELLAAISFTGGRTYYADSVKGRFTISRDNAKNTVYLQMNSLNPEDTAVYYCNTTSRRSQVGYSTRYDYWGQGTQVTVSS", "high polyreactivity"),
    ("QVQLVESGGGLVQAGGSLRLSCAASGRIFQYYAMGWYRQAPGKERELVAAISSAGSTYYADSVKGRFTISRDNAKNTVYLQMNSLKPEDTAVYYCAVGKQVLSYQNYYWGQGTQVTVSS", "low polyreactivity"),
    ("QVQLVESGAGLVQAGGSLRLSCAASGRIFGYYAMGWYRQAPGKERELVAAITRGGSTYYADSVKGRFTISRDNAKHTVYLQMNSLKPEDTAVYFCAANISGLVKYENDYWGQGTQLTVSS", "low polyreactivity"),
    ("QDLLVESAGGLVQAGGSLRLSCAASGRNFPYKAMGWYRPAPGKERELVAAISSGGSTNYADSVKGRFTTSRDNAKNTVYLQMNSLKPEDTAVYYCAVGYSYYPSDEFDYWGQGTQVTVSS", "low polyreactivity"),
    ("QVQLVETGGGLVQAGGSLRLSCADSGSIYQKNAMGWYRQPPGKERELVAAITSGGTTYYADSVKGRFTISRDNAKNTVYLQMYSLKPEDTAVYYCAKYHCRLSFSRYPYDYWGQGTQVTVSS", "high polyreactivity"),
]

Ask | Tell me polyreactivity (PSR sort gate) reported for QVQLVESGGGVVQAGGSLRLSCAASGSTFSAYTMGWYRQAPGKERELVAAISRSGVSTYYADSVKGRFTISRDNAKNTVYLQMNSLKPEDTAVYYCAAPYFVSYQGYDYCGQGTQVTVSS
Reply | high polyreactivity

Ask | Tell me polyreactivity (PSR sort gate) reported for QVQLVESGGGLVQAGGSLRLSCAASGLIFYKYAMGWYRQAPGKERELVAAITRGGGSTSYADSVKGRFTISRDNAKNTVYLQMNCLKPEDTAVYYCNAAPYTRALQGEFDYWGQGTQVTVSS
Reply | high polyreactivity

Ask | Tell me polyreactivity (PSR sort gate) reported for QVQLVETGGGLVQAGGSLRLSCAASGRIFSPYALGWYRQAPGKERELVAAISYDDGITYYADSVKGRFTISRDNAKNTVYLQMNSLKPEDTAVYYCAADSVTRPAGDYWGQGTQVTVSS
Reply | low polyreactivity
